EXPERIMENTAL_SYSTEM: human FXR (NR1H4) (Homo sapiens)
Construct: host or cells: CHO (Chinese hamster ovary) reporter cells
Sequence (Q96RI1 1-486): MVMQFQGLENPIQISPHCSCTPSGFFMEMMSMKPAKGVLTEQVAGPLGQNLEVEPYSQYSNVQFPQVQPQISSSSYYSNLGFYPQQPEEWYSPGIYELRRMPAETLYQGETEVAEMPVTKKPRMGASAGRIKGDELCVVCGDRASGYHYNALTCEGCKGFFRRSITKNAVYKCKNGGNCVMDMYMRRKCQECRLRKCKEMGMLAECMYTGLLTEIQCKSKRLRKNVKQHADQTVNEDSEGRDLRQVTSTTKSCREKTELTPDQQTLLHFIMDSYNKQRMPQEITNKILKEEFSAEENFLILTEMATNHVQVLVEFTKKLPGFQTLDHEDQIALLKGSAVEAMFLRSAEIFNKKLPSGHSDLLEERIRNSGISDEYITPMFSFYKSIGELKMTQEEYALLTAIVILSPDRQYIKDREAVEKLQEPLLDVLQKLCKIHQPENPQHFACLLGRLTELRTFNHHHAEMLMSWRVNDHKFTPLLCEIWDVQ
PROTOCOL_DESCRIPTION: Human FXR (NR1H4) Assay: Gal4 promoter driven luciferase reporter transactivation in CHO cells (Indigo Bioscience kit IB00601)
Format: cell-based
ASSAY_CONDITIONS: CHO; read-out: Efficacy (%)
Listing of entries alongside the reported Emax.
Give the value in % but do not write % after it.

Consider the following illustrative entries.
O=C(NS(=O)(=O)N1CCCCC1)c1cc(F)c2nc(N3C4CCC3CC(NCc3c(-c5c(Cl)cccc5Cl)noc3C3CC3)C4)sc2c1 (stereo not drawn) [Example 300] ... 143
COC(=O)c1cc(F)c2nc(N3C4CCC3CC(NCc3c(-c5ccccc5C(F)(F)F)noc3C3CC3)C4)sc2c1 (stereo not drawn) [Example 1407] ... 92.5

Query molecule follows.
The molecule identified as CC1(S(=O)(=O)NC(=O)c2cc(F)c3nc(N4CCC(NCc5c(-c6ccccc6OC(F)(F)F)noc5C5CC5)CC4)sc3c2)CC1 [Example 900-4] registered its Emax at 84.8

---

EXPERIMENTAL_SYSTEM: human FXR (NR1H4) (Homo sapiens)
Construct: host or cells: CHO (Chinese hamster ovary) reporter cells
PROTOCOL_DESCRIPTION: Human FXR (NR1H4) Assay: Gal4 promoter driven luciferase reporter transactivation in CHO cells (Indigo Bioscience kit IB00601)
Assay type: cell-based
ASSAY_CONDITIONS: CHO; read-out: Efficacy (%)
Listing of entries alongside the reported Emax.
Give the value in % but do not write % after it.

Consider the following illustrative entries.
O=C(NS(=O)(=O)N1CCCC1)c1ccc2nc(N3C4CCC3CC(NCc3c(-c5c(Cl)cccc5Cl)noc3C3CC3)C4)sc2c1 (stereo not drawn) ... 256
Cc1c(C(=O)NS(=O)(=O)C2(C)CC2)ccc2nc(N3C4CCC3CC(NCc3c(-c5c(Cl)cccc5Cl)noc3C3CC3)C4)sc12 (stereo not drawn) ... 83.3

The compound identified as COC(=O)c1cc(OC)c2nc(N3C4CCC3CC(NCc3c(-c5c(Cl)cccc5Cl)noc3C3CC3)C4)sc2c1 (stereo not drawn) registered its Emax at 145

---

Listing of entries alongside the reported pEC50.
EXPERIMENTAL_SYSTEM: human FXR (NR1H4) (Homo sapiens, UniProt Q96RI1)
PROTOCOL_DESCRIPTION: Human FXR (NR1H4) Assay: Gal4 promoter driven luciferase reporter transactivation in CHO cells (Indigo Bioscience kit IB00601)
ASSAY_CONDITIONS: Human FXR (NR1H4) reporter assay, potency ranges
pEC50: −log10 of the molar value.

CCOC(=O)c1ccc2nc(N3C4CCC3CC(NCc3c(-c5ccccc5C(F)(F)F)noc3C3CC3)C4)sc2c1 (stereo not drawn) [Example 1412] ... 6.00 to 7.00
CC(C)Oc1cc(C(=O)NS(=O)(=O)C2(C)CC2)cc2sc(N3C4CCC3CC(NCc3c(-c5c(Cl)cccc5Cl)noc3C3CC3)C4)nc12 (stereo not drawn) [Example 400-18] ... > 9.00
O=C(NS(=O)(=O)N1CCCCC1)c1ccc2nc(N3C4CCC3CC(NCc3c(-c5c(Cl)cccc5Cl)noc3C3CC3)C4)sc2c1 (stereo not drawn) [Example 228] ... 7.00 to 9.00
COC(=O)c1cc2sc(N3C4CCC3CC(NCc3c(-c5c(Cl)cccc5Cl)noc3C3CC3)C4)nc2c2ccccc12 (stereo not drawn) [Example 200-27] ... 7.00 to 9.00
CCOC(=O)c1ccc2nc(N(C)C3CCC(OCc4c(-c5c(Cl)cccc5Cl)noc4C4CC4)CC3)sc2c1 (stereo not drawn) [Example 169] ... < 6.00
CC(C)Oc1cc(C(=O)O)cc2sc(N3C4CCC3CC(NCc3c(-c5ccccc5C(F)(F)F)noc3C3CC3)C4)nc12 (stereo not drawn) [Example 1401] ... 6.00 to 7.00
COC(=O)c1cc(C)c2nc(N3C4CCC3CC(NCc3c(-c5c(Cl)cccc5Cl)noc3C3CC3)C4)sc2c1 (stereo not drawn) [Example 7] ... 7.00 to 9.00
CC1(S(=O)(=O)NC(=O)c2cc(F)c3nc(N4C5CCC4CC(NCc4c(-c6c(Cl)cccc6Cl)noc4C4CC4)C5)sc3c2)CC1 (stereo not drawn) [Example 295] ... 7.00 to 9.00

The compound identified as O=C(O)c1cc(F)c2nc(N3[C@@H]4CC[C@H]3C[C@@H](NCc3c(-c5c(Cl)cccc5Cl)noc3C3CC3)C4)sc2c1 [Example 4] registered its pEC50 at > 9.00

meta.source: patent US10450306B2
